Hello, the source for this data is patent US4673678A, in case you need it.

Test: solubility
Format: physicochemical
Details: water, solubility studies in water
Counter-ions that a name gives are not always drawn.

# molecule, solubility
records = [
    ("C/C=C/C=C/c1cc2cc3c(c(O)c2c(=O)[nH]1)C1(CC3)C(=O)c2c(O)c3c(c(O)c2C1=O)C(=O)C(OC)=CC3=O (stereo not shown) [KFMA, potassium salt of fredericamycin A]", "~1000 µg/mL"),
]

====

Assay: solubility
Type: physicochemical
Details: dmso-saline 10:90, organic solvent or mixture, solution is transparent blue; read-out: solubility in dimethylsulfoxide-saline (10:90)
Where a name gives a salt, the structure may show the parent alone.
readout type: solubility (µg/mL)

# molecule, numeric value
data = [
    ("C/C=C/C=C/c1cc2cc3c(c(O)c2c(=O)[nH]1)C1(CC3)C(=O)c2c(O)c3c(c(O)c2C1=O)C(=O)C(OC)=CC3=O (stereo not shown) [KFMA, potassium salt of fredericamycin A]", 1000),
]
